- assayDetails: NCI Yeast Anticancer Drug Screen. Data for the mlh1 rad18 strain (AID 175)
- experimentalParameters: S. cerevisiae mlh1 rad18 strain growth inhibition; at 50.0 µM
This is part of a sample that, as a whole, favours compounds with a hit. Of some 79,000 tested, about 15% had one in any assay. Active and inactive are the calls of the source. Cut-off read from the data, not from the text of the source: active = growth inhibition above about 70%; inactive = the rest.
Select the correct class. Options are active, inactive and nothing else.

Look over these answered cases.
O=C1/C(=C/c2ccc(F)cc2)CNC/C1=C\c1ccc(F)cc1 :: active
COc1ccnc2c1C(=O)c1nc3ccccc3c3ccnc-2c13 :: inactive
Cc1cccc(/C=N/NC(=S)Nc2ccc(Cl)cc2)n1 :: active
Nc1ccc(CCCCCc2ccc(N)cc2)cc1 :: active
O=C(OC1CC2CC1C1CC=CC21)c1ccccc1 (stereo not given) :: inactive

Data request: How was COC(=O)c1nc(=S)[nH]c(C(=O)OC)c1C(=O)c1c(C)[nH]c2ccccc12 classified in this test?
Data returned: inactive

Data request: How was Cc1ccc(C(C)C)c(O)c1N/N=C/c1cc(Cl)ccc1O classified in this test?
Data returned: inactive

Data request: How was C[N+]1=C(/C=C\c2ccc(O)c3ccccc23)C(C)(C)c2ccccc21 classified in this test?
Data returned: inactive
